Reported values of remaining at 0.75 h for individual entries
Assay: Stability in dog liver microsomes assessed as residual compound after 45 mins
Format: ADME, Canis lupus familiaris
Conditions: read-out: Stability
Write the number in % without appending the unit.

O=C(c1ccc(C[C@@H]2CC[C@H]([C@H](O)c3ccccc3)N2)cc1)N1C[C@@H]2[C@H](C1)[C@H]2c1nnco1: 73

Kindly consider the entry below.
Record summary for `O=C(c1ccc(C[C@@H]2CC[C@H]([C@H](O)c3ccccc3)N2)cc1)N1CCC2(CCOC2=O)CC1` : reported remaining at 0.75 h = 78

----------
Reported values of half-life for individual entries
Assay: Half life in rat at 1 mg/kg, iv or 2 mg/kg, po
Type: ADME, organism-based
Conditions: in vivo
Write the number in h without appending the unit.

Here are 3 compounds together with their reported answers.
O=C(c1ccc(C[C@@H]2CC[C@H]([C@H](O)c3ccccc3)N2)cc1)N1CCC2(CCOC2=O)CC1: 2.5
CCc1nnc([C@H]2[C@@H]3CN(C(=O)c4ccc(C[C@@H]5CC[C@H]([C@H](O)c6ccccc6)N5)cc4)C[C@@H]32)o1: 3
Cn1nnc([C@H]2[C@@H]3CN(C(=O)c4ccc(C[C@@H]5CC[C@H]([C@H](O)c6ccccc6)N5)cc4)C[C@@H]32)n1: 3.2

Record summary for `O=C(c1ccc(C[C@@H]2CC[C@H]([C@H](O)c3ccccc3)N2)cc1)N1C[C@@H]2[C@H](C1)[C@H]2c1nnco1` : reported half-life = 1.4

Record summary for `CC1(C)CC2(CCN(C(=O)c3ccc(C[C@@H]4CC[C@H]([C@H](O)c5ccccc5)N4)cc3)CC2)C(=O)O1` : reported half-life = 2
